# SYSTEM: T1, hANGPTL4(26-406)-His (Homo sapiens, UniProt Q9BY76)
# T1 construct: purchased R&D Systems
# T1 sequence (Q9BY76 26-406): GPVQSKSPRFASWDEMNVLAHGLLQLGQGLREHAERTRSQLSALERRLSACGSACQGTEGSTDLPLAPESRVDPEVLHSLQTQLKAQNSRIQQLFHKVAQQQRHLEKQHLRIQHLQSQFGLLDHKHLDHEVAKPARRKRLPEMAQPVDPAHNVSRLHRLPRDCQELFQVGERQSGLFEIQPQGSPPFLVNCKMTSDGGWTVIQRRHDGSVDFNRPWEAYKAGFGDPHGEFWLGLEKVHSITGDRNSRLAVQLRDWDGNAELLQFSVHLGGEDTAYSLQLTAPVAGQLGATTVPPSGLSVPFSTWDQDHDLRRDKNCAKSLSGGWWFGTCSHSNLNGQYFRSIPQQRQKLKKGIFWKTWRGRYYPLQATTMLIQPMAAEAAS
# ASSAY: BIACORE, full mAb or Fab over amino-coupled hANGPTL4(26-406)-His
# Assay type: binding
# ASSAY_CONTEXT: pH 7.2, 25° C., amino-coupled 450 RU
VALUE_KIND: RU bound at 50 nM mAb or Fab

molecule="H1H284P Fab: Fab fragment of H1H284P prepared by papain digestion (antibody, V domains shown) VH: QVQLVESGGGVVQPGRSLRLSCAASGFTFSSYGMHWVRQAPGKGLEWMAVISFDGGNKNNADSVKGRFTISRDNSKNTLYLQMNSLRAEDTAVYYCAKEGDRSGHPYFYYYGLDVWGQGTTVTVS VL: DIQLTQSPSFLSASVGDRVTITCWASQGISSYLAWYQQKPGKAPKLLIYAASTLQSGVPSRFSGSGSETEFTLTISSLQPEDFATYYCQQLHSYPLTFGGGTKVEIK" assay_value=32
molecule="H1H268P: anti-hANGPTL4 antibody, hIgG1 isotype, HCVR/LCVR SEQ ID NOs 42/44 (antibody, V domains shown) VH: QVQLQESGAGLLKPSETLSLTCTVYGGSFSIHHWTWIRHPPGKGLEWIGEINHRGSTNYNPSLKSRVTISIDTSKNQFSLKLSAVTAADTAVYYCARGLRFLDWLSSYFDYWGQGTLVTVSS VL: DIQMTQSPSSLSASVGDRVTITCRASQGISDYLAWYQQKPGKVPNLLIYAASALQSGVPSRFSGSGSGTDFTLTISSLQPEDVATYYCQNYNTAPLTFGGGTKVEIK" assay_value=38
molecule="H1H268P Fab: Fab fragment of H1H268P prepared by papain digestion (antibody, V domains shown) VH: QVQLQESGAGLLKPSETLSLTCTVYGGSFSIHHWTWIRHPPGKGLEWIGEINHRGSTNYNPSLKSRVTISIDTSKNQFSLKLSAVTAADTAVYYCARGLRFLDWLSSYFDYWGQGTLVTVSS VL: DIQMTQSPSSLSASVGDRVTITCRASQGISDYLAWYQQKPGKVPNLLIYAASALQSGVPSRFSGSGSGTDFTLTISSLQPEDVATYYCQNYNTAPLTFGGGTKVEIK" assay_value=13
molecule="H1H284P: anti-hANGPTL4 antibody, hIgG1 isotype, HCVR/LCVR SEQ ID NOs 90/92 (antibody, V domains shown) VH: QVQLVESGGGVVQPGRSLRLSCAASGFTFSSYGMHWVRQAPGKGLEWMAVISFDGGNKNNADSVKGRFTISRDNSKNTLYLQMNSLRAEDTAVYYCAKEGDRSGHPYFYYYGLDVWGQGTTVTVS VL: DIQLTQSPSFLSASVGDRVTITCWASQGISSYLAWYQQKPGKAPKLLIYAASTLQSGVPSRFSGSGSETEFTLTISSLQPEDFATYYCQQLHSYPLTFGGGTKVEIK" assay_value=77

Origin of measurements: patent US9120851B2
